Collected recombinant barcode read abundance (log10) values appear next to each entry.
Assay: recombinant barcode read abundance after kanamycin selection (control-corrected) (log10(CPM+1)); higher = more efficient recombination; sequences stand for … in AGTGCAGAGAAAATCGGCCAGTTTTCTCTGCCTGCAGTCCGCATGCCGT…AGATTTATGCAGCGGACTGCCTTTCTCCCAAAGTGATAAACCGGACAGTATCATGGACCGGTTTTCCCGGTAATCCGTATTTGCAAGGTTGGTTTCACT; site = the 11-nt target;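 note: IS621 recombinase and bridge RNA in Escherichia coli cells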
valueKind: recombinant barcode read abundance (log10)

[
  {
    "chain": "CTCTAGGCTTGGGTTCTAACCTGTTGCCT (site CTCTCGGCTAG)",
    "valueReported": 0.186
  },
  {
    "chain": "TCCGCGACTTGGGTTCTAACCTGTTGCCT (site TCCGCGACTAG)",
    "valueReported": 0.159
  },
  {
    "chain": "GAGCCACCTTGGGTTCTAACCTGTTGCTG (site GAGCCACCTCA)",
    "valueReported": 1.58
  },
  {
    "chain": "AGCCCGCCTTGGGTTCTAACCTGTTGCCT (site TGCCCGCCTAG)",
    "valueReported": 0.157
  },
  {
    "chain": "ATCGAGTCTTGGGTTCTAACCTGTTGCCT (site AGCGAGTCTAG)",
    "valueReported": 0.734
  },
  {
    "chain": "GGAGAAGCTTGGGTTCTAACCTGTTGCCT (site GGAGAAGCTAG)",
    "valueReported": 2.11
  },
  {
    "chain": "AAGACAACTTGGGTTCTAACCTGTTGCGG (site TGCCTGCCTAG)",
    "valueReported": 0.042
  },
  {
    "chain": "TGGGCACCTTGGGTTCTAACCTGTTGCTT (site GGGGCACCTTA)",
    "valueReported": 0.175
  },
  {
    "chain": "CTATGACCTTGGGTTCTAACCTGTTGCGT (site CTATGACCTAC)",
    "valueReported": 2.11
  },
  {
    "chain": "AGCTGTCCTTGGGTTCTAACCTGTTGCAG (site TAGGCGGCTAC)",
    "valueReported": 0.0556
  },
  {
    "chain": "AGGTCTACTTGGGTTCTAACCTGTTGCGG (site AGGTCTACTCC)",
    "valueReported": 1.63
  },
  {
    "chain": "ACTTAGACTTGGGTTCTAACCTGTTGCCT (site ACTTAGACTCG)",
    "valueReported": 0.313
  },
  {
    "chain": "GGCTTCTCTTGGGTTCTAACCTGTTGCCT (site GGCTTCTCTAG)",
    "valueReported": 1.22
  },
  {
    "chain": "ATAGCGACTTGGGTTCTAACCTGTTGCCT (site ATAGCCACTAG)",
    "valueReported": 0.13
  },
  {
    "chain": "CCACTGCCTTGGGTTCTAACCTGTTGCCT (site CCACTTCCTAG)",
    "valueReported": 0.0699
  },
  {
    "chain": "CTAGACTCTTGGGTTCTAACCTGTTGCTT (site CTAGACTCTCA)",
    "valueReported": 0.304
  },
  {
    "chain": "CGGATAGCTTGGGTTCTAACCTGTTGCCT (site CGGATCGCTAG)",
    "valueReported": 0.0282
  },
  {
    "chain": "AGCCCTTCTTGGGTTCTAACCTGTTGCTT (site GTAGGGACTCG)",
    "valueReported": 0.0698
  },
  {
    "chain": "CAGTGAACTTGGGTTCTAACCTGTTGCCT (site CAGTGAACTAG)",
    "valueReported": 1.55
  },
  {
    "chain": "TACTCACCTTGGGTTCTAACCTGTTGCTT (site ACTGGTTCTCG)",
    "valueReported": 0.022
  },
  {
    "chain": "GACTTGACTTGGGTTCTAACCTGTTGCCT (site GACTTGGCTAG)",
    "valueReported": 0.171
  },
  {
    "chain": "ACCTGCCCTTGGGTTCTAACCTGTTGCCT (site ACCTGCCCTAG)",
    "valueReported": 1.38
  },
  {
    "chain": "AATTAGCCTTGGGTTCTAACCTGTTGCCT (site GTGAGCACTTA)",
    "valueReported": 0.185
  },
  {
    "chain": "CGGGCTACTTGGGTTCTAACCTGTTGCGG (site CGGGCTACTCC)",
    "valueReported": 3.05
  },
  {
    "chain": "CGTGTAACTTGGGTTCTAACCTGTTGCTT (site CGTGTAACTAA)",
    "valueReported": 0.212
  },
  {
    "chain": "CTAGACTCTTGGGTTCTAACCTGTTGCTC (site CTAGACTCTTA)",
    "valueReported": 0.275
  },
  {
    "chain": "CGACGCACTTGGGTTCTAACCTGTTGCGG (site TAGTTGTCTAA)",
    "valueReported": 0.0412
  },
  {
    "chain": "CATGGGCCTTGGGTTCTAACCTGTTGCCT (site CATGGGCCTAG)",
    "valueReported": 0.0279
  },
  {
    "chain": "AGAACTACTTGGGTTCTAACCTGTTGCCA (site AGAACTACTTG)",
    "valueReported": 0.0417
  },
  {
    "chain": "GACTCTCCTTGGGTTCTAACCTGTTGCAT (site GACTCTCCTAC)",
    "valueReported": 1.45
  },
  {
    "chain": "GCGAACCCTTGGGTTCTAACCTGTTGCGG (site GCGAACCCTCC)",
    "valueReported": 0.967
  },
  {
    "chain": "GCAGCGACTTGGGTTCTAACCTGTTGCCT (site GCCGCGACTAG)",
    "valueReported": 0.148
  },
  {
    "chain": "AATCGAGCTTGGGTTCTAACCTGTTGCGG (site AATCGAGCTCC)",
    "valueReported": 1.82
  },
  {
    "chain": "GAATCTACTTGGGTTCTAACCTGTTGCCT (site GCATCTACTAG)",
    "valueReported": 0.195
  },
  {
    "chain": "GTGGTAACTTGGGTTCTAACCTGTTGCCT (site GTGGTATCTAG)",
    "valueReported": 0.0678
  },
  {
    "chain": "AACGAGTCTTGGGTTCTAACCTGTTGCCT (site AGCGAGTCTAG)",
    "valueReported": 0.0187
  },
  {
    "chain": "ATGTATTCTTGGGTTCTAACCTGTTGCCT (site AACTATTCTAG)",
    "valueReported": 0.0758
  },
  {
    "chain": "TGGGCACCTTGGGTTCTAACCTGTTGCTT (site TGGGCACCTAA)",
    "valueReported": 1.37
  },
  {
    "chain": "GGCAACTCTTGGGTTCTAACCTGTTGCCT (site AAGTTAGCTCC)",
    "valueReported": 0
  },
  {
    "chain": "TTGTCGTCTTGGGTTCTAACCTGTTGCCT (site ATGTAGTCTAG)",
    "valueReported": 0.0378
  },
  {
    "chain": "CAGGCGGCTTGGGTTCTAACCTGTTGCCT (site CAGGCGACTAG)",
    "valueReported": 0.117
  },
  {
    "chain": "GAGCGTCCTTGGGTTCTAACCTGTTGCTA (site AGCGAATCTCG)",
    "valueReported": 0.0924
  }
]
